Please provide measured log10 MIC for the entries that follow.
Test system: Mycobacterium tuberculosis
protocol_summary: Antitubercular activity against Mycobacterium tuberculosis H37Rv ATCC27294 measured after 2-3 weeks by agar dilution SPOTi assay
Type: functional
details: H37Rv ATCC 27294
Would you kindly interpret these values as log10 of MIC expressed in µM?

>>> print(df.to_string())
                                   molecule  quantity_measured  measured_number
0               NNC(=O)c1ccncc1 [ISONIAZID]          log10 MIC            -0.44
1  COc1ccc(C(=O)/C=C/c2ccccc2)cc1S(=O)(=O)Nc1c(N)nc(SC)[nH]c1=O          log10 MIC             1.62
2  COc1ccc(C(=O)/C=C/c2ccc(C)cc2)cc1S(=O)(=O)Nc1c(N)nc(SC)[nH]c1=O          log10 MIC             1.61

Respectfully, I request log10 MIC for each entry included below.
1. COc1ccc(C(=O)/C=C/c2ccccc2)cc1S(N)(=O)=O
2. COc1ccc(C(=O)/C=C/c2ccc(C)cc2)cc1S(N)(=O)=O
3. COc1ccc(C(=O)/C=C/c2ccc(Cl)cc2)cc1S(N)(=O)=O
4. COc1ccc(C(=O)/C=C/c2ccc(Cl)cc2)cc1S(=O)(=O)Nc1c(N)nc(SC)[nH]c1=O

1.20
1.48
1.15
1.30

====

Test system: NIH3T3
protocol_summary: Cytotoxicity against mouse 3T3 cells assessed as cell viability measured after 48 hrs by MTT assay
Type: cell-based
details: nih3t3, 48 h
Please provide measured LC50 for the entries that follow.

These recorded examples may help you get a feel for the data.
>>> print(df.to_string())
                                   molecule     result
0  COc1ccc(C(=O)/C=C/c2ccc(C)cc2)cc1S(=O)(=O)Nc1c(N)nc(SC)[nH]c1=O     7.2 µM
1  COc1ccc(C(=O)/C=C/c2ccc(Cl)cc2)cc1S(N)(=O)=O     4.1 µM
2  COc1ccc(C(C)=O)cc1S(=O)(=O)Nc1c(N)nc(SC)[nH]c1=O  > 1600 µM
3  COc1ccc(C(=O)/C=C/c2ccc(Cl)cc2)cc1S(=O)(=O)Nc1c(N)nc(SC)[nH]c1=O      13 µM
4  C[C@@H]1C[C@@H]([C@H](O)CC2CC(=O)NC(=O)C2)C(=O)[C@@H](C)C1 [CYCLOHEXIMIDE]   < 2.2 µM

Report LC50 from NIH3T3 testing of "COc1ccc(/C=C/C(=O)c2ccc(OC)c(S(N)(=O)=O)c2)cc1"
96 µM

====

Tested on: NIH3T3
protocol_summary: Cytotoxicity against mouse 3T3 cells assessed as cell viability measured after 48 hrs by MTT assay
Format: cell-based
details: nih3t3, 48 h
Lab note: compare LC50 with 7 µM, writing 1 if less and -1 if equal or more.

>>> print(df.to_string())
                           smiles_structure  target_system  class_name
0  COc1ccc(C(=O)/C=C/c2ccc3c(c2)OCO3)cc1S(N)(=O)=O         NIH3T3          -1

Does the reported LC50 of the following compound sit strictly below 7 µM? "COc1ccc(/C=C/C(=O)c2ccc(OC)c(S(=O)(=O)Nc3c(N)nc(SC)[nH]c3=O)c2)cc1"
1

Does the reported LC50 of the following compound sit strictly below 7 µM? "COc1ccc(C(C)=O)cc1S(N)(=O)=O"
-1

Does the reported LC50 of the following compound sit strictly below 7 µM? "COc1ccc(C(=O)/C=C/c2cc(OC)c(OC)c(OC)c2)cc1S(N)(=O)=O"
1

Does the reported LC50 of the following compound sit strictly below 7 µM? "COc1ccc(C(=O)/C=C/c2ccccc2)cc1S(=O)(=O)Nc1c(N)nc(SC)[nH]c1=O"
-1

Does the reported LC50 of the following compound sit strictly below 7 µM? "COc1ccc(C(=O)/C=C/c2ccc(C)cc2)cc1S(N)(=O)=O"
1

Does the reported LC50 of the following compound sit strictly below 7 µM? "COc1ccc(C(=O)/C=C/c2cc(OC)c(OC)c(OC)c2)cc1S(=O)(=O)Nc1c(N)nc(SC)[nH]c1=O"
1

Does the reported LC50 of the following compound sit strictly below 7 µM? "COc1ccc(C(=O)/C=C/c2ccccc2)cc1S(N)(=O)=O"
-1
